species: Rattus norvegicus; assay: Open TG-GATES - Regimen: Single; type: toxicity, organism-based, Sprague-Dawley; design: regimen Single, gender Male, age 6 weeks; conditions: in vivo, po, 0 mg/kg, 3 h, tissue Blood, route gavage, dose level Control
measurement_kind: RBC

// lookup RBC for CCC(C)(C)C(=O)O[C@H]1C[C@@H](C)C=C2C=C[C@H](C)[C@H](CC[C@@H]3C[C@@H](O)CC(=O)O3)[C@H]21 [SIMVASTATIN]
596.2 x10_4/ul

// lookup RBC for Nc1nc(N)c2nc(-c3ccccc3)c(N)nc2n1
651 x10_4/ul

// lookup RBC for C[C@](N)(Cc1ccc(O)c(O)c1)C(=O)O [METHYLDOPA]
588.6 x10_4/ul

// lookup RBC for CC(=O)Oc1cc(C(C)C)c(OCCN(C)C)cc1C [MOXISYLYTE]
614.4 x10_4/ul
